# SYSTEM NAME: human c-Met (human, UniProt P08581 25-1390)
# Sequence (P08581 25-1390): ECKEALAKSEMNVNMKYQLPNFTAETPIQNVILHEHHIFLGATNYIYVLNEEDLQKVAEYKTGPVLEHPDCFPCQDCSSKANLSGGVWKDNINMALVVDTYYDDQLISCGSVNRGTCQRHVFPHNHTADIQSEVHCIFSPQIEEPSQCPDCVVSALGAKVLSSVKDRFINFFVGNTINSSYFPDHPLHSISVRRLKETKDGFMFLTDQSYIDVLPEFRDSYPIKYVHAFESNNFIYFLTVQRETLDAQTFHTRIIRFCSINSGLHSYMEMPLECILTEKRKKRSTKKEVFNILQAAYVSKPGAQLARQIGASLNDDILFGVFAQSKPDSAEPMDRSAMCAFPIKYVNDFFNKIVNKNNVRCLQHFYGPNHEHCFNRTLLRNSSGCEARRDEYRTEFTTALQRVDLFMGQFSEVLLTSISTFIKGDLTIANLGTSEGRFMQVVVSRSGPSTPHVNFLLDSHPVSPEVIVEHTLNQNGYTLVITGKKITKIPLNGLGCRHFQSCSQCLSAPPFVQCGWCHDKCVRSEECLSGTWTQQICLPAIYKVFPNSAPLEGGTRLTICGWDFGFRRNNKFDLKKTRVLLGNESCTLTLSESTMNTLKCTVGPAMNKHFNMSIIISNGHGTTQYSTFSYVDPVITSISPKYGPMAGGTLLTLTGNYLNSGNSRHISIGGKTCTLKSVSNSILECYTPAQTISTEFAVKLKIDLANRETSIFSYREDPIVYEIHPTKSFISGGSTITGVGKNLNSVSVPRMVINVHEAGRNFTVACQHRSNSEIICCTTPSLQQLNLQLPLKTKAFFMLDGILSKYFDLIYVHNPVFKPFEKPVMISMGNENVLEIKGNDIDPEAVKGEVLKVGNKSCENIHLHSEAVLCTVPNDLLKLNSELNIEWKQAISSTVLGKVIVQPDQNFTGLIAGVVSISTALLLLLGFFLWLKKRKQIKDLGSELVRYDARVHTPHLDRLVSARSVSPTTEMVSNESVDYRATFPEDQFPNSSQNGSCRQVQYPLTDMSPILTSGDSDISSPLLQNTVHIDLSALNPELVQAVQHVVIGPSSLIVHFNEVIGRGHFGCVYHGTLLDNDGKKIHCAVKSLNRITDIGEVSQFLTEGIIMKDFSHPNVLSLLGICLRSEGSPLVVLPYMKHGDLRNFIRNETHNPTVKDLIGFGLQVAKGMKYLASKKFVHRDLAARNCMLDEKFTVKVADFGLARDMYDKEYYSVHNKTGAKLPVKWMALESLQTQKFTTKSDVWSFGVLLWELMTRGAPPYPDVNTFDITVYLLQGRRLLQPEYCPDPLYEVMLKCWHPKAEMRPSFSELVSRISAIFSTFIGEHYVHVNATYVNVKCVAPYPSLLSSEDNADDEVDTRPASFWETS
# EXPERIMENTAL PROTOCOL: cell-based or functional assay
ATTRIBUTE MEASURED: AVG CPM, 3H-thymidine incorporation in MKN45 cells, Ab 20000.0 ng/mL (CPM)
One number for each entry, in CPM.

Exam item: Item C8-6 (antibody, human IgG2, kappa, V domains shown, Named IgG4 kappa; also called C8-6 IgG4) VH: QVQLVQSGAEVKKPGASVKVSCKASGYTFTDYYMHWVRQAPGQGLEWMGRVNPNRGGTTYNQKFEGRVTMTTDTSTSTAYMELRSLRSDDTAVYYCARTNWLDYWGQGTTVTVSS VL: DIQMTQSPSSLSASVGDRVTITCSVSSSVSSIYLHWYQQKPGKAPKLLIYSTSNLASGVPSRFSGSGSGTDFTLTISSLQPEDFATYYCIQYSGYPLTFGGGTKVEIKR : provide AVG CPM, 3H-thymidine incorporation in MKN45 cells, Ab 20000.0 ng/mL
Marked response: 16400

Source of measurements: patent US20100129369A1
